Biological target: T1, β-catenin (Homo sapiens, UniProt P35222)
T1 chain: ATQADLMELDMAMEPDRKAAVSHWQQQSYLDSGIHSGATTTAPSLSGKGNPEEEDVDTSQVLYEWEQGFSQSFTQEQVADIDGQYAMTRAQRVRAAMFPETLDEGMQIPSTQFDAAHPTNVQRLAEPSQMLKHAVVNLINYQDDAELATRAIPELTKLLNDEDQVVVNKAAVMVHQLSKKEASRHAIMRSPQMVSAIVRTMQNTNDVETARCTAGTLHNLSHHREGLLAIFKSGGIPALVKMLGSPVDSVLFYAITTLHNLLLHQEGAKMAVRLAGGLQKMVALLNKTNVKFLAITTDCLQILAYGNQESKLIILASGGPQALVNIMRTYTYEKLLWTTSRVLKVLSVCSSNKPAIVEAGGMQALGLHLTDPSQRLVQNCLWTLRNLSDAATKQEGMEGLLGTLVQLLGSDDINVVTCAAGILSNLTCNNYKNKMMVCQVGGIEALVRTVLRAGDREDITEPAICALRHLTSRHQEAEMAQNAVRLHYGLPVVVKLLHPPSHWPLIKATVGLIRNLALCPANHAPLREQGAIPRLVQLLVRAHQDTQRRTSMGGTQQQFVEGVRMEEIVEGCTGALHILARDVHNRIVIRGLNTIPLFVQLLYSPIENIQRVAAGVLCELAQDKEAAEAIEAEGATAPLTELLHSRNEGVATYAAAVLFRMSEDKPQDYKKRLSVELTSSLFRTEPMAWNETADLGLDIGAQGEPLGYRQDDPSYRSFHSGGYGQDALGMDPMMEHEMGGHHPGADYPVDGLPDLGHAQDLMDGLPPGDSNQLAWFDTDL
Assay: competitive fluorescence polarisation
measurement kind: Kd (nM)

• PESILDEHVQRVLRT [aAxWt (axin CBD peptide) 467-481] = 1450
